Biological target: T1, biotinylated goat anti-human kappa light chain
T1 construct: Positive control of the ELISA
Assay: ELISA; positive control; note: test concentration or dose not given here
readout_name: optical density (OD)
Quick note: give the figure in OD, leave out the unit.

**Query** Return reported optical density; argument: 373_E03 (antibody, V domains shown, VH/VL only) VH: EVQLLESGGGLVQPGGSLRLSCAASGFTFDSYGMNWVRQAPGKGLEWVSNINYNGGYTGYADSVKGRFTISRDNSKNTLYLQMNSLRAEDTAVYYCARSATWHDTALDYWGQGTLVTVSS VL: DIQMTQSPSSLSASVGDRVTITCRASQSILSYVNWYQQKPGKAPKLVIYAATSRASGVPSRFSGSGSGTDFTLTISSLQPEDFATYYCQQSYDLPLTFGGGTKVEIK
**Result** 3.25

**Query** # repeat for 368_G05 (antibody, V domains shown, VH/VL only) VH: EVQLLESGGGLVQPGGSLRLSCAASGFTFDSYSMNWVRQAPGKGLEWVAGINYNGGYTSYADSVKGRFTISRDNSKNTLYLQMNSLRAEDTAVYYCARSATWHDTHLDYWGQGTLVTVSS VL: DIQMTQSPSSLSASVGDRVTITCRASQSILTYVNWYQQKPGKAPKLLIYAATSLHSGVPSRFSGSGSGTDFTLTISSLQPEDFATYYCQQSYNTPLTFGGGTKVEIK
**Result** 3.35

Data origin, for the record: patent US20210380703A1
